Source of measurements: patent US20240165282A1

- System under test: human cloned somatostatin receptor 2 (human) (UniProt P30874)
- Sequence (P30874 whole entry): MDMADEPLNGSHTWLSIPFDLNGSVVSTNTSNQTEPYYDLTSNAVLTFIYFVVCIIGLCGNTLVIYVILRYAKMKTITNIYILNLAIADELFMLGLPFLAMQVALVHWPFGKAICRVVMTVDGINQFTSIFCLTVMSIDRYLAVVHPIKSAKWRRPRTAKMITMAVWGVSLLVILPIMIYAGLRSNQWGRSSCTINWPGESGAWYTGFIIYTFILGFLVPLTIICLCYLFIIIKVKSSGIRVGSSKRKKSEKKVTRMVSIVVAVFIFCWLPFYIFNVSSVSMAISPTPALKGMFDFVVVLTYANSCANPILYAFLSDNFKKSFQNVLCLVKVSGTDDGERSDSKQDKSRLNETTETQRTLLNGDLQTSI
- Assay name: 125I-Tyr11-SRIF-14 displacement
*1 amine or outer side, *2 acyl side, *3 side chain or, on linkers, in order; H or OH if unused. Bridges are numbered along the chain shown (N, C = ends). Where no end group is shown, it is not given here. [ ]: non-standard residue; d: D form. The star is where a group is joined. DOTA = O=C(O)CN1CCN(CC(=O)O)CCN(CC(=O)*)CCN(CC(=O)O)CC1; N(2-mercaptoethyl)Gly = O=C(CN(CCS[*:3])[*:1])[*:2]
% displacement at 10 nM by entry:

| Binder | % displacement at 10 nM / % |
| --- | --- |
| {DOTA}-A[dF]RCF[dW]KTF[N(2-mercaptoethyl)Gly]-NH2 (disulfide 4-10; SMILES C[C@H](NC(=O)CN1CCN(CC(=O)O)CCN(CC(=O)O)CCN(CC(=O)O)CC1)C(=O)N[C@H](Cc1ccccc1)C(=O)N[C@@H](CCCNC(=N)N)C(=O)N[C@H]1CSSCCN(CC(N)=O)C(=O)[C@H](Cc2ccccc2)NC(=O)[C@H]([C@@H](C)O)NC(=O)[C@H](CCCCN)NC(=O)[C@@H](Cc2c[nH]c3ccccc23)NC(=O)[C@H](Cc2ccccc2)NC1=O) [SEQ ID NO: 12] | 0 |
| K[dF]RCF[dW]KTF[N(2-mercaptoethyl)Gly]-NH2 (disulfide 4-10; not fully specified (residue 1, N-terminus); printed as (DOTA)2-Lys1-D-Phe2-Arg3-Cys4-Phe5-D-Trp6-Lys7-Thr8-Phe9-NTEG10-NH2 (cyclo 3-9); also: (DOTA)2 on Lys1, sites not given here) [SEQ ID NO: 16] | 2 |
